Source of measurements: the supplement of paper PMC8728848

Target: Gal(a1-3)Gal(b1-4)GlcNAc(b1-2)Man(a1-3)[Gal(a1-3)Gal(b1-4)GlcNAc(b1-2)Man(a1-6)]Man(b1-4)GlcNAc(b1-4)GlcNAc
Assay: glycan array binding signal (z-score within array); higher = stronger binding
Conditions: glycan notation: IUPAC condensed, linker removed
About 410 targets per protein were measured; listed, in parts, are those with the strongest signals and a random draw of the rest.
MEASUREMENT KIND: glycan array binding signal (z-score)
Form: value (number only, do not type unit).

Name the reported glycan array binding signal (z-score) value associated with the binder Epa9 (Candida glabrata), CAGL0A01386g (protein) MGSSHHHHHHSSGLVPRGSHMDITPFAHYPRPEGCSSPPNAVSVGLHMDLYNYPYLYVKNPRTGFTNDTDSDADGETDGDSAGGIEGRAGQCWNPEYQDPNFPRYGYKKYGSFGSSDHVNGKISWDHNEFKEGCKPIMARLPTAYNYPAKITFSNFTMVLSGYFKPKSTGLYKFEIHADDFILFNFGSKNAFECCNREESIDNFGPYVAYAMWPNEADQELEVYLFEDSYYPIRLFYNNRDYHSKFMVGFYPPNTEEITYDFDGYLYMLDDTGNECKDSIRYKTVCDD
4.07
